Assay: Acute toxicity (LD50) in mice
Parameters: species or system mouse (male, dd strain)
Details: in vivo; mouse, oral administration, observed one week
readout_type: LD50 at 168 h (mg/kg)
Report only the number, with the unit mg/kg understood.

Exercise: Using the record for CC(C)=CCN1CCC2(C)c3cc(O)ccc3CC1C2C (centres unmarked) , report its LD50 at 168 h.
Solution: 305

Exercise: Using the record for C=C(C)CCN1CCC2(C)c3cc(O)ccc3CC1C2C (centres unmarked) , report its LD50 at 168 h.
Solution: 205

----------
Experiment: Margin of safety (R = LD50/ED50), bradykinin, rat
Details: in vivo, sc, S.C. in rat
Please provide measured selectivity ratio for the entries that follow.
Quick one: just the number, no unit, thanks!

Exercise: Using the record for C=C(C)CCN1CCC2(C)c3cc(O)ccc3CC1C2C (centres unmarked) , report its selectivity ratio.
Solution: 161

Exercise: Using the record for CC(C)=CCN1CCC2(C)c3cc(O)ccc3CC1C2C (centres unmarked) , report its selectivity ratio.
Solution: 15.7

----------
Experiment: Margin of safety (R = LD50/ED50), acetic acid writhing, mouse
Conditions: in vivo, sc, S.C. in mouse
readout_type: selectivity ratio
Quick one: just the number, no unit, thanks!

Exercise: Using the record for CC(C)=CCN1CCC2(C)c3cc(O)ccc3CC1C2C (centres unmarked) [Pentazocine] , report its selectivity ratio.
Solution: 40.6

Exercise: Using the record for C=C(C)CCN1CCC2(C)c3cc(O)ccc3CC1C2C (centres unmarked) [Compound of formula (I)] , report its selectivity ratio.
Solution: 889

----------
Test: Acute toxicity (LD50) in rats
Parameters: species or system rat (male, Wistar strain)
Conditions: in vivo, sc; rat, subcutaneous administration, observed one week
Please provide measured LD50 at 168 h for the entries that follow.
Report only the number, with the unit mg/kg understood.

Exercise: Using the record for CC(C)=CCN1CCC2(C)c3cc(O)ccc3CC1C2C (centres unmarked) [Pentazocine] , report its LD50 at 168 h.
Solution: 165

Exercise: Using the record for C=C(C)CCN1CCC2(C)c3cc(O)ccc3CC1C2C (centres unmarked) [Compound of formula (I)] , report its LD50 at 168 h.
Solution: 61

----------
Experiment: Acute toxicity (LD50) in mice
Set-up: species or system mouse (male, dd strain)
Details: in vivo, sc; mouse, subcutaneous administration, observed one week
readout_type: LD50 at 168 h (mg/kg)
Report only the number, with the unit mg/kg understood.

Exercise: Using the record for C=C(C)CCN1CCC2(C)c3cc(O)ccc3CC1C2C (centres unmarked) , report its LD50 at 168 h.
Solution: 80

Exercise: Using the record for CC(C)=CCN1CCC2(C)c3cc(O)ccc3CC1C2C (centres unmarked) , report its LD50 at 168 h.
Solution: 140

----------
Please provide measured LD50 at 168 h for the entries that follow.
Assay: Acute toxicity (LD50) in rats
Design: species or system rat (male, Wistar strain)
Conditions: in vivo; rat, oral administration, observed one week

Exercise: Using the record for CC(C)=CCN1CCC2(C)c3cc(O)ccc3CC1C2C (centres unmarked) , report its LD50 at 168 h.
Solution: > 400 mg/kg

Exercise: Using the record for C=C(C)CCN1CCC2(C)c3cc(O)ccc3CC1C2C (centres unmarked) , report its LD50 at 168 h.
Solution: > 300 mg/kg
